Source listed as patent US7951819B2.

test system: ppERK; assay: Phospho-ERK Cell-based Assay; settings: cells incubated with test compound for 6 hours
pIC50: −log10 of the molar value.
measurement_label: pIC50

{"columns": ["compound", "quantitative_readout"],
 "data": [
  ["O=C(Nc1cccc(Oc2ccnc3[nH]c(=O)[nH]c23)c1)Nc1ccc(Cl)c(C(F)(F)F)c1 [CJS 3678]", 4.97]
]}

====

biological target: V600E B-RAF (Homo sapiens, UniProt P15056, V600E); construct: MDRGSH6 (MDRGS-His6) (N); test: BRAF V600E Kinase Assay
Sequence (P15056 whole entry V600E): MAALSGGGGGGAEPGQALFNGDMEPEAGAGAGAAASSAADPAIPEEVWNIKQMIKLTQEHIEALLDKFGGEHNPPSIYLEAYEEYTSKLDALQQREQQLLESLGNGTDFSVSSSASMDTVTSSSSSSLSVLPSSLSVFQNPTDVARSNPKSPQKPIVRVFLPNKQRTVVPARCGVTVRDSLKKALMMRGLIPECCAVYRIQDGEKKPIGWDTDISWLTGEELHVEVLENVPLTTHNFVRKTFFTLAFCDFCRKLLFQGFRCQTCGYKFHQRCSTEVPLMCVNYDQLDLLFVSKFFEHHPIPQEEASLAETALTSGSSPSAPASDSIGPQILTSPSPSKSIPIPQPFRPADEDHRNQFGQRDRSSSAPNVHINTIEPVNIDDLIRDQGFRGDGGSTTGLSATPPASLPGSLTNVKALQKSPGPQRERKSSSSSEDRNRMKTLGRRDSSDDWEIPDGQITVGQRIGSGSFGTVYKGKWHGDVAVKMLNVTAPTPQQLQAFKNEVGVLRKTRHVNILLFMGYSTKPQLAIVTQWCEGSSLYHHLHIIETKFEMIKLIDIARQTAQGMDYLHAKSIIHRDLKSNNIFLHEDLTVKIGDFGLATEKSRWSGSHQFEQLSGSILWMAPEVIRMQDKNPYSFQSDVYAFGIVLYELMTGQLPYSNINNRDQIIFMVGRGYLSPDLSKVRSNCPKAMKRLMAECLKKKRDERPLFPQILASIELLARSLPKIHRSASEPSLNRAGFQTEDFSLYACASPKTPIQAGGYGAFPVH

{"columns": ["compound_structure_string", "IC50, µM"],
 "data": [
  ["O=C(Nc1cccc(Oc2ccnc3[nH]c(=O)[nH]c23)c1)Nc1ccc(Cl)c(C(F)(F)F)c1", 0.015]
]}
